biological target: PD-1 (UniProt Q15116); assay: blocking ELISA, clone supernatant, competitor PD-L1.hFc detected with anti-human Fc HRP
Sequence (Q15116 25-170 limits assumed): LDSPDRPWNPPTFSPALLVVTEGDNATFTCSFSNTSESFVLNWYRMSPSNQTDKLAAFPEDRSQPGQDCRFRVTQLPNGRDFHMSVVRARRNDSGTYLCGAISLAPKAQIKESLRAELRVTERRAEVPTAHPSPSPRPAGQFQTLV
Please provide measured OD450, PD-L1 binding with PD-1 for the entries that follow.
Answers are plain numbers, in OD450.

{"Binder": "NB189 (VHH) VHH: QVKLEESGGGLVQAGGSLRLSCTASGGTFNSYAMGWFRQAPGKERESVAAINLSRGNTYYADSVKGRFTISRDNAKNTVYLQMNSLKPEDTAVYHCGVDRRQYGLGIPPLADHWGQGTQVTVSS", "OD450, PD-L1 binding with PD-1 [OD450]": 2.34}

In the following, a different binder is considered.
Answer with reported OD450, PD-L1 binding with PD-1 of NB153 (VHH) VHH: DVQLQESGGGLVQAGGSLRVSCAASGRTFSSYGMGWFRQAPGKERELVAAITNTGLTYYADSVEGRFTISRDAAKNTVYLQMNSLEPEDTAVYYCNAGAPPPGGLGYDESDYWGQGTLVTVSS
2.05
